# target: cMET receptor tyrosine kinase (GST-cMET (969-1390)) (Homo sapiens)
# Sequence (P08581 969-1390): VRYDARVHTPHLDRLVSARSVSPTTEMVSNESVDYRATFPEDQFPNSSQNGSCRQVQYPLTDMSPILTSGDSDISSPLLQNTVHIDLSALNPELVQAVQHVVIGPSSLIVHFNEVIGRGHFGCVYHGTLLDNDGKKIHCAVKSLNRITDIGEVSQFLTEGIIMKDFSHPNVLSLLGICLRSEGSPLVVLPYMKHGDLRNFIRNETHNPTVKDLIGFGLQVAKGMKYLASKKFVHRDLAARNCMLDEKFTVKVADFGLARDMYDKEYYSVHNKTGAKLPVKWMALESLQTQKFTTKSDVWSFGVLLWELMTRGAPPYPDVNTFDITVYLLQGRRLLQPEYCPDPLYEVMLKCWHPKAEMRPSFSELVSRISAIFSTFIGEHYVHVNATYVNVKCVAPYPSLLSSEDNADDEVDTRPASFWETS
# method_summary: EPK cMET profiling assay (LanthaScreen TR-FRET antibody based kinase phosphorylation assay)
# experimental_conditions: purified recombinant GST-cMET (969-1390), 2 μM ATP, 50 nM Fluorescein-PolyEAY, 60 minutes at room temperature; read-out: c-Met IC50
readout_type: pIC50
Scale for pIC50: -log10 of concentration given in mol/L; no unit attached.

Previously resolved entries follow.
1. Cn1cc(-c2ccc3ncc(Cc4cc5cccnc5cc4C(F)(F)F)n3n2)cn1 [Example 169] | 6.40
2. Cn1ncc2c(F)c(Cc3cnc4ccc(-c5cnn(CCO)c5)nn34)c(F)cc21 [Example 285] | 7.96
3. CC(c1cc2cn[nH]c2cc1F)c1cnc2ccc(-c3cnn(C)c3)nn12 (racemic) [Example 164] | 7.27

# context switch: different molecule, same pIC50
// pIC50 lookup, molecule = Fc1cc2ncccc2cc1Cc1cnc2ccc(-c3cnn(C4CCNCC4)c3)nn12 [Example 180] , result: 6.84

---

# target: cMET receptor tyrosine kinase (GST-cMET (969-1390)) (Homo sapiens)
# Construct: made in house
# method_summary: EPK cMET profiling assay (LanthaScreen TR-FRET antibody based kinase phosphorylation assay)
# Type: biochemical
# experimental_conditions: purified recombinant GST-cMET (969-1390), 2 μM ATP, 50 nM Fluorescein-PolyEAY, 60 minutes at room temperature; read-out: c-Met IC50
The entries below are paired with their reported IC50.
Field: numeric (nM). Do not append units.

The examples below pair each entry with its known result.
1) Cn1cc(-c2ccc3ncc(Cc4c(F)cc5ncccc5c4F)n3n2)cn1 | 6
2) CCn1cc(-c2ccc3ncc(Cc4cc5cccnc5cc4F)n3n2)cn1 | 15
3) Cn1cc(-c2ccc3ncc(Cc4cc5cn[nH]c5cc4F)n3n2)cn1 | 6
4) Cn1cc(-c2ccc3ncc(Cc4ccc5nccn5c4)n3n2)cn1 | 21.5
5) c1cncc(Nc2ccc3ncc(Cc4ccc5ncccc5c4)n3n2)c1 | 69
6) CN(C)C1CCN(c2ccc3ncc(Cc4ccc5ncccc5c4)n3n2)CC1 | 160
7) CC(c1ccc(O)cc1)c1cnc2ccc(-c3cnn(CCO)c3)nn12 (racemic) | 240
8) CNC(=O)c1cccc(-c2ccc3ncc(Cc4ccc5ncccc5c4)n3n2)c1 | 250
9) CNC(=O)c1ccc(-c2ccc3ncc(Cc4ccc5ncccc5c4)n3n2)cc1Cl | 24
10) CN(c1cccc(Cl)c1)c1ccc2ncc(Cc3ccc4ncccc4c3)n2n1 | 960

// sample CC(=O)c1cnc2ccc(Cc3cnc4ccc(-c5cnn(C)c5)nn34)cn12 , its IC50 was 71

Reported IC50 ( CC(c1c(F)cc2ncccc2c1F)c1cnc2ccc(-c3cnn(CCO)c3)nn12 (racemic) ) = 3

Note to self: IC50 recorded for FC(F)(F)CNc1ccc2ncc(Cc3ccc4ncccc4c3)n2n1 was 56

Short answer for COc1ncc(-c2ccc3ncc(Cc4ccc5ncccc5c4)n3n2)cn1 : IC50 was 250

Form: compound = CS(=O)(=O)c1cccc(Nc2ccc3ncc(Cc4ccc5ncccc5c4)n3n2)c1 ; IC50 = 130

The measured IC50 associated with Clc1ccc(-c2ccc3ncc(Cc4ccc5ncccc5c4)n3n2)cc1 reads 110

The value of IC50 measured for the compound CN(C(=O)OC(C)(C)C)C1CCN(c2ccc3ncc(Cc4ccc5ncccc5c4)n3n2)C1 (racemic) turned out to be 370
